Overview of recorded EC50 for various compounds
Biological target: Glucocorticoid receptor (Homo sapiens, UniProt P04150)
Sequence (P04150 whole entry, the tested form may be a part): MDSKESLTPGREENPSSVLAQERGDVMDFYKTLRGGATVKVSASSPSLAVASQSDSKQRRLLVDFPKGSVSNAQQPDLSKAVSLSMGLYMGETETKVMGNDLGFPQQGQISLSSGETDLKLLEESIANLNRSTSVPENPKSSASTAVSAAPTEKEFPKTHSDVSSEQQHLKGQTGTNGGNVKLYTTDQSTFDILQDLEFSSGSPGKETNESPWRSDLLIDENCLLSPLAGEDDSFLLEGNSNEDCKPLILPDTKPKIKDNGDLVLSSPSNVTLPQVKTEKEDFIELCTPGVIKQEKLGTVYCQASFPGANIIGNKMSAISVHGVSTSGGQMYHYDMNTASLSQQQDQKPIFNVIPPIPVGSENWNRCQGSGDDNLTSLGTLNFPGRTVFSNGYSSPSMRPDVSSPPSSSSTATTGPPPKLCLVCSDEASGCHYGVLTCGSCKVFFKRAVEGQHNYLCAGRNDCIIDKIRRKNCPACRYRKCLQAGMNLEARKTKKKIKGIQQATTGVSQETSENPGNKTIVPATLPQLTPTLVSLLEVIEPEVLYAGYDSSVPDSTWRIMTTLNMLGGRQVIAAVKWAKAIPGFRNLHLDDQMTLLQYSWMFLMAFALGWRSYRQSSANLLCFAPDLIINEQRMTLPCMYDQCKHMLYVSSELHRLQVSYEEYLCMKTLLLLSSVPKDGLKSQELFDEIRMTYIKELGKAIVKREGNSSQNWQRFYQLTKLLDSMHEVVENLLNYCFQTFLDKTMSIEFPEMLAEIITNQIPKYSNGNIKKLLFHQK
Test: Transactivation activity of glucocorticoid receptor ligand binding domain expressed in human NP-1 Hela cells co-expressing GAL4 DNA binding domain by luciferase reporter gene assay
Type: cell-based

Would you please look over these solved cases?
*Q* EC50 for CC(C)(C(=O)Nc1nccs1)[C@H](c1ccccc1)c1ccc(O)cc1 ?
*A* > 10000 nM

*Q* // repeat for CC(C)(C(=O)Nc1nncs1)[C@H]1c2ccccc2Oc2cc(O)ccc21 and report
*A* 85.7 nM

*Q* // repeat for CC(C)(C(=O)Nc1nccs1)[C@@H](c1ccccc1)c1ccc(O)c(C#N)c1 and report
*A* > 10000 nM

---
*Q* EC50 for CC(=O)c1cc([C@H](c2ccccc2)C(C)(C)C(=O)Nc2nccs2)ccc1O ?
*A* > 10000 nM

*Q* // repeat for CC(C)(C(=O)Nc1nccs1)[C@H]1c2ccccc2Oc2cc(O)ccc21 and report
*A* 60.1 nM

*Q* // repeat for CC(C)(C(=O)Nc1nncs1)[C@@H](c1ccccc1)c1ccc(O)c(Br)c1 and report
*A* 67.2 nM

*Q* // repeat for CC(C)(C(=O)Nc1nccs1)[C@@H](c1ccccc1)c1ccc(O)c(Br)c1 and report
*A* 115 nM

*Q* // repeat for CC(C)(C(=O)Nc1nncs1)[C@@H]1c2ccccc2Oc2cc(O)ccc21 and report
*A* > 10000 nM

*Q* // repeat for CC(C)(C(=O)Nc1nccs1)C(c1ccccc1)c1ccc(O)c(F)c1 (racemic) and report
*A* 216 nM

*Q* // repeat for CC(C)(C(=O)Nc1nncs1)C1c2ccccc2Oc2ccccc21 and report
*A* > 10000 nM

*Q* // repeat for CC(C)(C(=O)Nc1nccs1)[C@H](c1ccccc1)c1ccc(O)c(F)c1 and report
*A* > 10000 nM

###

Overview of recorded EC50 for various compounds
Molecular target: Glucocorticoid receptor (Homo sapiens)
Assay: Transactivation activity at glucocorticoid receptor in human 13D3/Huh7 cells assessed as induction of tyrosine aminotransferase activity after 24 hrs
Assay type: cell-based, Huh-7

*Q* EC50 for CC(C)(C(=O)Nc1nccs1)[C@@H](c1ccccc1)c1ccc(O)c(C#N)c1 ?
*A* > 5 µM

---
*Q* EC50 for CC(C)(C(=O)Nc1nccs1)[C@H](c1ccccc1)c1ccc(O)c(F)c1 ?
*A* > 5 µM

*Q* // repeat for CC(C)(C(=O)Nc1nccs1)[C@H](c1ccccc1)c1ccc(O)cc1 and report
*A* > 10 µM
